src = the supplement of paper PMC8633005

Test system: Bowes
Assay: drug sensitivity score (DSS) (DSS (unitless, 0-50 scale)); higher = more sensitive (stronger viability inhibition); extreme values may be limits of the assay
Conditions: 72 h; culture: 2D
Classify by measured drug sensitivity score: 1 if it is equal to or exceeds 2, 0 if it is smaller.

Molecule	Group
C=C(c1ccc(C(=O)O)cc1)c1cc2c(cc1C)C(C)(C)CCC2(C)C	0
CCn1c(C(=O)N(C2CC2)C2CC2)cc2c3c(ncn3C)c(Nc3cc(C)n(C)n3)nc21	0
N#CC1(c2ccc(NC(=O)c3cccnc3NCc3ccncc3)cc2)CCCC1	0
CN[C@@H]1C[C@H]2O[C@@](C)([C@@H]1OC)n1c3ccccc3c3c4c(c5c6ccccc6n2c5c31)C(=O)N[C@H]4O	1
NC(=O)N1CCC(CC(=O)N2CCC([C@H]3c4ncc(Br)cc4CCc4cc(Cl)cc(Br)c43)CC2)CC1	1
C=CC[C@@H]1/C=C(\C)C[C@H](C)C[C@H](OC)[C@H]2O[C@@](O)(C(=O)C(=O)N3CCCC[C@H]3C(=O)O[C@H](/C(C)=C/[C@@H]3CC[C@@H](O)[C@H](OC)C3)[C@H](C)[C@@H](O)CC1=O)[C@H](C)C[C@@H]2OC	0
O=C(Nc1cccc(NC(=O)c2cccc(O)c2O)c1)c1cccc(O)c1O	1
CCc1nc(C(N)=O)c(Nc2ccc(N3CCC(N4CCN(C)CC4)CC3)c(OC)c2)nc1NC1CCOCC1	0
CS(=O)(=O)c1ccc(-c2cnc(N)c(C(=O)Nc3ccccc3)n2)cc1	1
CN1CCN(C2CCC(n3cc(-c4ccc(Oc5ccccc5)cc4)c4c(N)ncnc43)CC2)CC1 (configuration not stated)	1
C=CCn1c(=O)c2cnc(Nc3ccc(N4CCN(C)CC4)cc3)nc2n1-c1cccc(C(C)(C)O)n1	1
CC[C@@H]1[C@H](F)C(=O)N[C@@H]1COc1nccc2cc(C(N)=O)c(OC)cc12	0
Nc1nc(N)c2nc(-c3cccc(O)c3)c(-c3cccc(O)c3)nc2n1	1
COc1cc(OC)cc(N(CCNC(C)C)c2ccc3ncc(-c4cnn(C)c4)nc3c2)c1	1
Nc1nc(Cl)nc2c1ncn2[C@H]1C[C@H](O)[C@@H](CO)O1	0
CN(C)c1cc2c(cc1Sc1nc3c(N)nccc3n1CCNCC(C)(C)C)OCO2	1
Cn1nnc2c(C(N)=O)ncn2c1=O [Temozolomide]	0
